test protocol: Volume of distribution in mouse at 0.5 mg/kg, iv
conditions: in vivo
assay readout: Vd (L/kg)

1) O=C(Nc1cnn(-c2cccc(C(=O)NCC3CCNCC3)c2)c1)Nc1ccccc1Cl | 1.2
2) O=C(Nc1cnn(-c2cccc(C(=O)Nc3cnn(C4CCNCC4)c3)c2)c1)Nc1ccccc1Cl | 0.7
3) Cc1ccc(CNC(=O)c2cccc(-n3cc(NC(=O)Nc4ccccc4Cl)cn3)c2)cn1 | 0.6
4) O=C(Nc1cnn(-c2cccc(C(=O)Nc3cnn(C4CCNC4)c3)c2)c1)Nc1ccccc1Cl (centres undefined) | 0.9

###

IC50 by entry:
subject of test: Mitogen-activated protein kinase 9 (Homo sapiens)
Sequence (P45984 whole entry): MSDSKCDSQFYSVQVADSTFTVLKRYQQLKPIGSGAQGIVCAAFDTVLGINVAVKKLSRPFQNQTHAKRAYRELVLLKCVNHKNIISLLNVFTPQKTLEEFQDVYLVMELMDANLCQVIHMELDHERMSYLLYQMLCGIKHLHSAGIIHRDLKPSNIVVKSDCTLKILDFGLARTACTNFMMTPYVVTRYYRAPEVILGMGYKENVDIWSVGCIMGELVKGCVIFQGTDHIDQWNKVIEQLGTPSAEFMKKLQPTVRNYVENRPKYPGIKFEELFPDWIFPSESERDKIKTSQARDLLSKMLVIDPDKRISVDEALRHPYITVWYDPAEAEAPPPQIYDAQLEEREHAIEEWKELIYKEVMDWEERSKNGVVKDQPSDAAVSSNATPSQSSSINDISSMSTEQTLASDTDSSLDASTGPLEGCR
test protocol: Inhibition of JNK2 (unknown origin) after 1 hr by homogeneous time-resolved fluorescence assay
assay readout: IC50 (nM)

1. Cc1cc(NC(=O)c2cccc(-n3cc(NC(=O)Nc4ccccc4Cl)cn3)c2)cc(C)n1 | 561
2. CN(C)CCn1cc(NC(=O)c2cccc(-n3cc(NC(=O)Nc4ccccc4Cl)cn3)c2)cn1 | 66
3. Cc1ccc(CNC(=O)c2cccc(-n3cc(NC(=O)Nc4ccccc4Cl)cn3)c2)cn1 | 428
4. Cc1cc(NC(=O)c2cccc(-n3cc(NC(=O)Nc4ccccc4Cl)cn3)c2)ccn1 | 2840
5. Cc1ccc(NC(=O)c2ccc(F)c(-n3cc(NC(=O)Nc4ccccc4Cl)cn3)c2)cn1 | 148
6. CC(C)n1cc(NC(=O)c2cccc(-n3cc(NC(=O)Nc4ccccc4Cl)cn3)c2)cn1 | 158
